B1: E3 ubiquitin-protein ligase NEDD4-like, residues 539 to 589; numbered along this chain, Q96PU5 (parent)
chain: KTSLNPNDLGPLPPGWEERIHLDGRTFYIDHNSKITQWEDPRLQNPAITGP

variants of: B1; test: abundance fitness (aPCA) (normalised: wild type 0, dead -1); higher = more abundant; growth selection in yeast, the domain comes from the species named; settings: Homo sapiens
Rule: abundance fitness of -0.1 or more gives Satisfied; anything lower gives Not satisfied.

Use these answered entries as a reference point.
>  <MUTANT CODE>
P46L

>  <CLASS ASSIGNMENT>
Satisfied

$$$$
>  <MUTANT CODE>
S33Q

>  <CLASS ASSIGNMENT>
Not satisfied

$$$$
>  <MUTANT CODE>
P51G

>  <CLASS ASSIGNMENT>
Satisfied

$$$$
>  <MUTANT CODE>
T2V

>  <CLASS ASSIGNMENT>
Not satisfied

$$$$
>  <MUTANT CODE>
L4P

>  <CLASS ASSIGNMENT>
Not satisfied

$$$$
>  <MUTANT CODE>
D23I

>  <CLASS ASSIGNMENT>
Not satisfied

$$$$
>  <MUTANT CODE>
S33T

>  <CLASS ASSIGNMENT>
Satisfied

$$$$
>  <MUTANT CODE>
H21R

>  <CLASS ASSIGNMENT>
Not satisfied

$$$$

QUERY: Please tell me: is the variant `L12A` at or over -0.1 in terms of abundance fitness?
RESULT: Not satisfied

QUERY: Please tell me: is the variant `P13T` at or over -0.1 in terms of abundance fitness?
RESULT: Not satisfied

QUERY: Please tell me: is the variant `H31V` at or over -0.1 in terms of abundance fitness?
RESULT: Satisfied

Taken from the Human Domainome abundance scans (Beltran et al. 2025).
